Where these numbers come from: patent US20260070975A1

Experimental target: T1, Human siglec-6 (BLI analyte) (human, UniProt O43699 27-347, limits assumed)
T1 construct: also called human siglect-6
T1 sequence (O43699 27-347 limits assumed): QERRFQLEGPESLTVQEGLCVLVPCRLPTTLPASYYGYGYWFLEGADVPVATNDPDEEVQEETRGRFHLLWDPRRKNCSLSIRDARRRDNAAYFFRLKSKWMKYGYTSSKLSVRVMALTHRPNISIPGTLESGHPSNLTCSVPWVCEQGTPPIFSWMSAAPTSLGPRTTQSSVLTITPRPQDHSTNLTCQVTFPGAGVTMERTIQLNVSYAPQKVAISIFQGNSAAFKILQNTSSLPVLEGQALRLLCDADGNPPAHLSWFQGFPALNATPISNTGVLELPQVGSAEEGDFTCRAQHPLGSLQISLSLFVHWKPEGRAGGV
Assay comment: BLI (Octet), antibody on capture sensor
Measured Kd accompanies every entry in the list below.
Kindly provide the numeric value in nM only, without the unit symbol.

Some binders with known Kd results, for comparison:
[
  {
    "Binder": "hRND-2 (antibody, human IgG1, kappa, V domains shown, also called humanized RND-2; hRND-H2 / hRND-L3; copies: 2 + 2) VH: QVQLVQSGAEVKKPGASVKVSCKASGYAFTSYWMHWVRQAPGQRLEWMGEIYPTNGGTTYAQKFQGRVTMTVDKSTSTAYMELSRLRSDDTAVYYCTIEDFYAMDYWGQGTTVTVSS VL: DIVMTQTPLSLSVTPGQPASISCKSSQSLLDSDGKTSLNWLLQKPGQSPQRLIYLVSKLDSGVPDRFSGSGSGTDFTLKISRVEAEDVGVYYCWQGTHFPYTFGQGTKLEIKR",
    "Kd [nM]": 0.17
  },
  {
    "Binder": "hRND-3 (antibody, human IgG1, kappa, V domains shown, also called humanized RND-3; hRND-H3 / hRND-L3; copies: 2 + 2) VH: QVQLVQSGAEVKKPGASVKLSCKASGYAFTSYWMHWVRQAPGQRLEWIGEIYPTNGGTTYAQKFQGRATLTVDKSTSTAYMELSRLRSDDTAVYYCTIEDFYAMDYWGQGTTVTVSS VL: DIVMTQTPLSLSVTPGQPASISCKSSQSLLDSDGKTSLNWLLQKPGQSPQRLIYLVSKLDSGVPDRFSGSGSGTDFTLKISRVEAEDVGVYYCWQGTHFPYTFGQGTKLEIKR",
    "Kd [nM]": 0.137
  },
  {
    "Binder": "hRND-4 (antibody, human IgG1, kappa, V domains shown, also called humanized RND-4; hRND-H2b / hRND-L3; copies: 2 + 2) VH: QVQLVQSGAEVKKPGASVKVSCKASGYAFTSYWMHWVRQAPGQRLEWMGEIYPTNGGTTYNEKFKRRVTMTVDKSTSTAYMELSRLRSDDTAVYYCTIEDFYAMDYWGQGTTVTVSS VL: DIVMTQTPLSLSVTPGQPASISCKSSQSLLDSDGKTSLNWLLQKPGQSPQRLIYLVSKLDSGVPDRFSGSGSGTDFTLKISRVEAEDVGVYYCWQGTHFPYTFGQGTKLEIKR",
    "Kd [nM]": 0.315
  }
]

Now for a further binder.
Using known records, supply Kd for hRND-5 (antibody, human IgG1, kappa, V domains shown, also called humanized RND-5; hRND-H3b / hRND-L3; copies: 2 + 2) VH: QVQLVQSGAEVKKPGASVKLSCKASGYAFTSYWMHWVRQAPGQRLEWIGEIYPTNGGTTYNEKFKRRATLTVDKSTSTAYMELSRLRSDDTAVYYCTIEDFYAMDYWGQGTTVTVSS VL: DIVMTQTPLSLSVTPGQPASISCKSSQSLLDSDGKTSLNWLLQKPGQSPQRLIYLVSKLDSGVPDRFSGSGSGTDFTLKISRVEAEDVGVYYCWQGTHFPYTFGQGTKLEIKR 0.166
